Experiment: Approximate solubility screening in organic solvents at ambient temperature
Assay type: physicochemical
Settings: organic solvent or mixture, thermodynamic from solid, Acetone/EtOH (2/1, v/v), read-out: S (solubility)
measured.quantity: solubility

Query: Form field: reported solubility of COc1cc(NC(C(=O)c2c[nH]c3ccc(OC(F)(F)F)cc23)c2ccc(Cl)cc2OC)cc(S(C)(=O)=O)c1 (stereo not shown)
Result: > 100 mg/mL

* * *

Assay: Equilibrium solubility determined by UPLC
Assay type: physicochemical
Conditions: MeOH/dichloromethane (1/1, organic solvent or mixture, thermodynamic from solid), MeOH/dichloromethane (DCM) (1/1, v/v)
measured.quantity: solubility thermodynamic (mg/mL)
Numbers only, in mg/mL.

Query: Form field: reported solubility thermodynamic of COc1cc(NC(C(=O)c2c[nH]c3ccc(OC(F)(F)F)cc23)c2ccc(Cl)cc2OC)cc(S(C)(=O)=O)c1 (stereo not shown)
Result: 317
